# System: HCT-116
# Experiment Notes: Cytotoxicity against human HCT116 cells assessed as reduction in cell viability incubated for 7 days
# Format: functional, cell-based
# Test Conditions: HCT-116, 168 h
Readout Kind: pIC50
The read-out pIC50 is expressed as -log10 of concentration in moles per litre.

Just so you know, measured pIC50 for O=C(O)c1cnc2c([N+](=O)[O-])cccc2c1O came out at 4.62

###

# Tested on: PC-3
# Experiment Notes: Cytotoxicity against human PC3 cells assessed as reduction in cell viability incubated for 7 days
# Assay type: functional, cell-based
# Test Conditions: PC-3, 168 h
Readout Kind: pIC50
The read-out pIC50 is expressed as -log10 of concentration in moles per litre.

Just so you know, measured pIC50 for O=C(O)c1cnc2c([N+](=O)[O-])cccc2c1O came out at 4.68

###

# Tested on: FHC
# Experiment Notes: Cytotoxicity against human FHC cells assessed as reduction in cell viability incubated for 7 days
# Format: cell-based
# Test Conditions: 168 h
Readout Kind: IC50 (µM)
Give a bare numeral; the unit µM is implied.

Just so you know, measured IC50 for O=C(O)c1cnc2c([N+](=O)[O-])cccc2c1O came out at 75.2
